# system: UniProt:P08684
# Sequence (P08684 2-503): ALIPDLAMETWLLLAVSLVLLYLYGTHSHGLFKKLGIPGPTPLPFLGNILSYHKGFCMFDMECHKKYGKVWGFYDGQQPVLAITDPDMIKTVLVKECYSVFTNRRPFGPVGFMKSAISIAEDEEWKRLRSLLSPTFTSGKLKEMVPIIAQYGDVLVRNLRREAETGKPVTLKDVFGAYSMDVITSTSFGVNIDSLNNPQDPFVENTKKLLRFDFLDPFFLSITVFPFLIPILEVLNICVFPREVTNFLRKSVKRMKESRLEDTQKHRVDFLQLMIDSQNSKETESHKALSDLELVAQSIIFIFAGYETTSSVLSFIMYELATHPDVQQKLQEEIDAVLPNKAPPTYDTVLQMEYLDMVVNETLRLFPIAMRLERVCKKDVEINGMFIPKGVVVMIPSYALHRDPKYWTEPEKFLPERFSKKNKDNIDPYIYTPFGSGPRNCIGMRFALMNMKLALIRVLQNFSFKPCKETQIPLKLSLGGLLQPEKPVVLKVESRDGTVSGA
# measurement_description: in vitro
# condition_description: human
# Procedure: Substrate work solutions of AFB1 were made to achieve sample concentrations from 0.5 μM to 50 μM, for the HLM experiments. For rhCYP an extra AFB1 sample concentration of 100 μM was implemented. […] The same equipment, settings and procedures were used as explained in Section “LC–MS/MS (linearity experiments).” Data analysis was performed by transferring Targetlynx® data to Microsoft® Excel. […] For AFB1 substrate depletion was measured. […]
result_type: Km (µM)
Please give a number only; it is taken to be in µM.

Q. Recorded Km for Cc1ncc2n1-c1ccc(Cl)cc1C(c1ccccc1F)=NC2 [MDZ, midazolam, reference compound] with UniProt:P08684, please?
A. 3.2

----------
# condition_description: human, microsomes
result_type: fraction unbound

Q. fraction unbound for Cc1ncc2n1-c1ccc(Cl)cc1C(c1ccccc1F)=NC2 [MDZ, midazolam, reference compound] ?
A. 0.907

----------
# Test system: CYP3A4 (MDZ), CYP1A2 (PH)
# measurement_description: in vitro
# condition_description: human, pH 7.4
result_type: Km (µM)
Please give a number only; it is taken to be in µM.

| compound | system | Km [µM] |
| --- | --- | --- |
| CCOc1ccc(NC(C)=O)cc1 [PH, phenacetin, reference compound] | CYP3A4 (MDZ), CYP1A2 (PH) | 40 |

Q. Km for Cc1ncc2n1-c1ccc(Cl)cc1C(c1ccccc1F)=NC2 [MDZ, midazolam, reference compound] ?
A. 2.15

All values here come from paper PMC9469084.
